# STUDY TARGET: HCV NS5B RNA dependent RNA polymerase (Hepatitis C virus genotype 1b)
# Construct: HCV NS5B RNA dependent RNA polymerase activity
# Sequence (P26663 2420-3010): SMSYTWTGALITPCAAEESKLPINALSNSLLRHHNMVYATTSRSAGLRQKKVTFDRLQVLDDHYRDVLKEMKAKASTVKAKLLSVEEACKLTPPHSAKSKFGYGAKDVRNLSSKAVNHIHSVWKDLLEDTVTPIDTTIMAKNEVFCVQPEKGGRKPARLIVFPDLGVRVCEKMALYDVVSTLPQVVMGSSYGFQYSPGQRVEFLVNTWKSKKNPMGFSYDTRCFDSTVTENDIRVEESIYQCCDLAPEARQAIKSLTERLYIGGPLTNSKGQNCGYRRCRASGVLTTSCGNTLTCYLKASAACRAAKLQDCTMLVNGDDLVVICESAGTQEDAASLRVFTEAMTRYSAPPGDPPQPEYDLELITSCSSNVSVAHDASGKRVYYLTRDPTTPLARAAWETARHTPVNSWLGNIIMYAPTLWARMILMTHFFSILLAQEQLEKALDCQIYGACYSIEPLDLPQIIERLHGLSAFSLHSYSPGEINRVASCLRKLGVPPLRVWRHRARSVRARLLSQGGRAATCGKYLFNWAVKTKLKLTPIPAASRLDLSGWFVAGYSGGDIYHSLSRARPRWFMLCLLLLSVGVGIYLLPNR
# ASSAY METHOD TEXT: NS5B inhibition assay (primer dependent elongation, poly rA-U12)
# Format: biochemical
# EXPERIMENTAL CONDITIONS: read-out: Anti-NS5B Activity (% Inh., 100 µM)
QUANTITY KIND: inhibition at 100 µM (%)
Numbers only, in %.

Example cases with answers are listed next.
COMPOUND	MEASURE UNIT	inhibition at 100 µM
Cc1ccc(-c2cc(C(F)(F)F)nn2-c2ccc(S(=O)(=O)/N=C3\SCC(=O)N3c3ccc(C(F)(F)F)cc3)cc2)cc1 [Compound 2e]	%	9.4
CCN1C(=O)CS/C1=N\S(=O)(=O)c1ccc(-n2nc(C(F)(F)F)cc2-c2ccc(C)cc2)cc1 [Compound 2a]	%	8.2

Would you mind giving inhibition at 100 µM for every compound in the list below?
1. Cc1ccc(-c2cc(C(F)(F)F)nn2-c2ccc(S(=O)(=O)/N=C3\SCC(=O)N3Cc3ccccc3)cc2)cc1 [Compound 2c]
2. Cc1ccc(-c2cc(C(F)(F)F)nn2-c2ccc(S(=O)(=O)NC(=S)Nc3ccc(C(F)(F)F)cc3)cc2)cc1 [Compound 1e]
3. Cc1ccc(-c2cc(C(F)(F)F)nn2-c2ccc(S(=O)(=O)NC(=S)Nc3ccc([N+](=O)[O-])cc3)cc2)cc1 [Compound 1d]

Output:
1: 19.4; 2: 14.6; 3: 68
